Hey, just so you know, these numbers are from patent US6511963B1.

Field: Emax. Provide a value for each of the molecules that follow.
- target_under_test: NMDA receptor (Rattus norvegicus, UniProt P35439+Q00960)
- Construct: other: test compound in the absence of spermine; concentration at 50% of maximum stimulation; % Sti; spermine = 100; other: with and without spermine; absence of spermine; % STI; absence
- Sequence (Q00960 27-1482, other chains not shown): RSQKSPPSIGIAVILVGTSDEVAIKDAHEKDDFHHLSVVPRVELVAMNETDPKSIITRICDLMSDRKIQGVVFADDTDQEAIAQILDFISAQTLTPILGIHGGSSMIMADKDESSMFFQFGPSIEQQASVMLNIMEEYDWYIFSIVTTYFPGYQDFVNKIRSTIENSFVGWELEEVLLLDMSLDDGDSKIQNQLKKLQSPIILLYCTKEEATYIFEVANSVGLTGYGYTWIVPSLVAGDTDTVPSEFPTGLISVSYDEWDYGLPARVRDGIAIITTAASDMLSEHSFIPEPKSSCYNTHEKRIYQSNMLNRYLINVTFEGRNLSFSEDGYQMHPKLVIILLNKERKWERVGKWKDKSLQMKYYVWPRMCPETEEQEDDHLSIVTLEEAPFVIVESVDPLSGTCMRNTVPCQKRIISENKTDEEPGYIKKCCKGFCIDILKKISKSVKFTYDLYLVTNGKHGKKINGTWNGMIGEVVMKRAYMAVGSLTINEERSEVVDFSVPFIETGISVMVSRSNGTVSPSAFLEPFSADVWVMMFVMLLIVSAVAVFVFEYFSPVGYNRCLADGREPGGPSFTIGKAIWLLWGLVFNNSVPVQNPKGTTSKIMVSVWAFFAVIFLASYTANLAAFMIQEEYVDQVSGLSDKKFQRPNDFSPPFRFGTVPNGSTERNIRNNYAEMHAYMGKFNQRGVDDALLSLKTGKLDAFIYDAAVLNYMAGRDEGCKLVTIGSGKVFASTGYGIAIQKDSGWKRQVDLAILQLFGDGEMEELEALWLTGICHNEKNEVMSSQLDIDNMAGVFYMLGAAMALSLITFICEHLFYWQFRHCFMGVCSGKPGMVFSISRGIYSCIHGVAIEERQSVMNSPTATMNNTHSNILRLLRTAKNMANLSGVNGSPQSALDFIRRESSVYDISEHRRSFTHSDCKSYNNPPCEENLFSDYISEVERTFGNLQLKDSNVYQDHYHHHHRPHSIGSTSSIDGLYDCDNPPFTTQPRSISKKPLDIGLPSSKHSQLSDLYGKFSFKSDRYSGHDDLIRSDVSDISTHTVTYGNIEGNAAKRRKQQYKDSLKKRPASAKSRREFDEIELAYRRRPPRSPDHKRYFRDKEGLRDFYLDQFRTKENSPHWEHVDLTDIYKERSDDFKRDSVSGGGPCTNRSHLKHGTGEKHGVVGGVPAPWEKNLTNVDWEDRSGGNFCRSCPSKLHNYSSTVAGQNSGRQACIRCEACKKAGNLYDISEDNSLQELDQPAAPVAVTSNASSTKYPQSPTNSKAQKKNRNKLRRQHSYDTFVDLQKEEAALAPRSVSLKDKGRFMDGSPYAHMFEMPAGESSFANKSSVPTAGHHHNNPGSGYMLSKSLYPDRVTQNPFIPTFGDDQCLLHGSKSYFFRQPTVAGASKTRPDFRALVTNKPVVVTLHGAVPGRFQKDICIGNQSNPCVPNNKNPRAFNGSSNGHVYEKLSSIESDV
- experiment_summary: biochemical
- Assay type: binding
- measurement_parameters: read-out: % Sti
The reply should contain only the number, in %.

# molecule NCCCCNCCCN [Spermidine, reference compound] ; its Emax = 97

# molecule CC[C@H](C)[C@H](N)C(=O)N[C@@H](CCCNC(=N)N)C(=O)N[C@@H](CCC(=O)O)C(=O)N[C@@H](CCCCN)C(=O)N[C@@H](CO)C(=O)N[C@@H](CC(N)=O)C(N)=O ; its Emax = 30

# molecule CC[C@H](C)[C@H](NC(=O)[C@H](CC(C)C)NC(=O)[C@H](CCC(=O)O)NC(=O)[C@H](CCC(N)=O)NC(=O)[C@H](CC(N)=O)NC(=O)[C@H](CCC(=O)O)NC(=O)[C@H](CCC(N)=O)NC(=O)[C@H](CC(C)C)NC(=O)[C@H](CCC(=O)O)NC(=O)[C@H](CCC(=O)O)NC(=O)[C@H](CCC(=O)O)NC(=O)CNC(=O)[C@@H](N)Cc1ccc(O)cc1)C(=O)N[C@@H](CCCNC(=N)N)C(=O)N[C@@H](CCC(=O)O)C(=O)N[C@@H](CCCCN)C(=O)N[C@@H](CO)C(=O)N[C@@H](CC(N)=O)C(N)=O ; its Emax = 31

====

- target_under_test: NMDA receptor
- Assay type: binding, rat
- measurement_parameters: read-out: Spermine IC
Ends that are not written are not given here.
measured_endpoint: pIC50
pIC50 (log units): -log10 of the concentration in mol/L.

Record EEELQENQELIREKSN-NH2 [Glu3,4,7,10-Con-G(2-17)] ; system NMDA receptor; pIC50 = 5.27

====

- target_under_test: NMDA receptor
- Assay type: binding, rat
- measurement_parameters: read-out: IC50
Ends that are not written are not given here.
measured_endpoint: IC50 (µM)
The reply should contain only the number, in µM.

# substance EEELQENQELIREKSN-NH2 [Glu3,4,7,10-Con-G(2-17)] ; its IC50 = 5.4

====

- Tested on: NMDA receptor
- Type: binding, rat
Ends that are not written are not given here.
Field: % Inh. Provide a value for each of the substances that follow.
The reply should contain only the number, in %.

# substance QENQELIREKSN [Glu 7,10,14-Con-G (6-17)] ; its % Inh = 0

# substance GEgS(p)LQgNQgLIRgKSN (GEXSLQXNQXLIRXKSN; phosphoserine) [Ser(p)4-Con-G] ; its % Inh = 0

# substance QELIREKSN [Glul0,14-Con-G(9-17)] ; its % Inh = 0

# substance Y(oMe)-GEggLQgNQgLIRgKSN (YGEXXLQXNQXLIRXKSN; O-methyl tyrosine) [Tyr(oMe)^o-Con-G] ; its % Inh = 0

# substance Y(p)-GEggLQgNQgLIRgKSN (YGEXXLQXNQXLIRXKSN; phosphotyrosine) [Tyr(p)^o-Con-G] ; its % Inh = 0

# substance EEELQENQELIREKSN-NH2 [Glu3,4,7,10-Con-G(2-17)] ; its % Inh = 70

# substance GEgALQgNQgLJRgKSN (GEXALQXNQXLIRXKSN; gamma-carboxyglutamate residues) [Ala4-Con-G] ; its % Inh = 0

# substance GEgELQgNQgLJRgKSN (GEXELQXNQXLIRXKSN; gamma-carboxyglutamate residues) [Glu4-Con-G] ; its % Inh = 0

# substance F(pC1)-GEggLQgNQgLIRgKSN (FGEXXLQXNQXLIRXKSN; N-terminal p-chloro-Phe; gamma-carboxyglutamate residues) [Phe(pCl)^o-Con-G] ; its % Inh = 0
